Origin of the recorded values: ChEMBL document CHEMBL1201862

- Test system: M14
- assay details: NCI tumour cell line growth inhibition, 48 h
Active and inactive are the calls of the source. Cut-off read from the data, not from the text of the source: active = GI50 up to about 1.1 µM and inactive = higher.
Answer with one of the outcomes active, inactive

{"molecule": "CN(C)c1ccc2c(c1)C(=O)N(OS(=O)(=O)c1ccc([N+](=O)[O-])cc1)C2=O", "discrete label": "inactive"}
{"molecule": "FC(F)(F)c1ccc(C2ON=C(c3ccccc3)N2C23CC4CC(CC(C4)C2)C3)cc1 (stereo not drawn)", "discrete label": "inactive"}

Problem: Which outcome was entered for the molecule CC1(c2ccccc2)CC12C(=O)NC(=O)NC2=O (stereo not drawn) in this test?
Solution: inactive

Problem: Which outcome was entered for the molecule "O=C1/C(=C(\Nc2ccccc2)c2ccccc2)C=NN1c1ccccc1" in this test?
Solution: inactive

Problem: Which outcome was entered for the molecule CC(=O)OCC1OC(n2c(-c3cccs3)c3c(c(C#N)c2=S)-c2ccccc2CC3)C(OC(C)=O)C(OC(C)=O)C1OC(C)=O (stereo not drawn) in this test?
Solution: inactive

Problem: Which outcome was entered for the molecule "CC(C)c1cccc(C(C)C)c1/N=C(/N)C#N" in this test?
Solution: inactive

Problem: Which outcome was entered for the molecule "CC1(C)O[C@@H]([C@@H](O)[C@H](O)C2SCCCS2)[C@@H](CO)O1" in this test?
Solution: inactive

Problem: Which outcome was entered for the molecule "O=c1[nH]nc(-c2ccccc2)c2[nH]c3c4ccccc4ccc3c12" in this test?
Solution: inactive

Problem: Which outcome was entered for the molecule Cc1cccc(C(O)c2ccncc2)c1O (stereo not drawn) in this test?
Solution: inactive

Problem: Which outcome was entered for the molecule "O=C(Nc1ccccn1)/C(=C\C(=O)c1ccc(Cl)cc1)Nc1ccccc1" in this test?
Solution: inactive

Problem: Which outcome was entered for the molecule "Sc1nnc(NNc2ccccc2)n1Nc1ccccc1" in this test?
Solution: inactive

Problem: Which outcome was entered for the molecule "CN(C)CCNC(=O)c1cccc2ccc(-c3ccc(O)cc3)nc12" in this test?
Solution: active

Problem: Which outcome was entered for the molecule COc1cc([C@@H]2c3cc4c(cc3[C@H](OC3OC5COC(c6ccco6)OC5C(O)C3O)C3COC(=O)[C@@H]32)OCO4)cc(OC)c1OC (stereo partly drawn) in this test?
Solution: inactive

Problem: Which outcome was entered for the molecule COc1ccc(N2C(=O)[C@H]3[C@H]4CC(C(C)(C)C)CC[C@H]4c4c(n(C)c5ccccc45)[C@H]3C2=O)cc1 (stereo partly drawn) in this test?
Solution: inactive

Problem: Which outcome was entered for the molecule CCOC(=O)N1CC2(C(=O)OC)C=CC1C(C(=O)OC)C2 (stereo not drawn) in this test?
Solution: inactive

Problem: Which outcome was entered for the molecule CCOC(=O)NC(C(=O)OCC)C(F)(F)F (stereo not drawn) in this test?
Solution: inactive

----------
- Test system: UACC-62
- assay details: NCI tumour cell line growth inhibition, 48 h
Calls of active or inactive are those of the source. No stated cut-off is given here; in the data, active = GI50 up to about 1.1 µM and inactive = higher.
Answer with one of the outcomes TRUE (active), FALSE (inactive)

Look over these answered cases.
{"compound": "COc1cc2c(cc1OC)[C@H]1C(=O)c3cc4c(cc3[C@H]1N(C)C2=O)OCO4", "discrete label": "TRUE"}
{"compound": "O=C(OCc1ccccc1)C(Cc1ccccc1)N(Cc1ccccc1)Cc1ccccc1 (centres undefined)", "discrete label": "FALSE"}
{"compound": "CCOc1c2c(cc3c1C(=O)c1c(OC)cccc1C3=O)C=C(OC)CC2", "discrete label": "FALSE"}
{"compound": "O=[N+]([O-])c1ccc(C2=NN(c3ccccc3)C[N+](c3ccc(Br)cc3)=N2)cc1", "discrete label": "FALSE"}
{"compound": "CCOC(=O)c1cc(-c2ccc(OC)c(OC)c2)c[nH]1", "discrete label": "FALSE"}

Problem: Which outcome was entered for the compound C[C@@H]1CCC2[C@@H](C)[C@@H](O[C@H]3O[C@@H]4O[C@@]5(C)CCC6[C@H](C)CCC([C@H]3C)[C@]64OO5)O[C@@H]3O[C@@]4(C)CCC1[C@@]23OO4 (some centres undefined) in this test?
Solution: FALSE

Problem: Which outcome was entered for the compound "COc1cc(Nc2cnc3cc(N)ccc3n2)cc(OC)c1OC" in this test?
Solution: FALSE

Problem: Which outcome was entered for the compound "CC(=O)Nc1nc2c(=O)c3ccccc3sc2s1" in this test?
Solution: FALSE

Problem: Which outcome was entered for the compound "c1cnn(CN(Cn2cccn2)Cn2cccn2)c1" in this test?
Solution: FALSE
